System: 755483-174-R-J1-PDC complex spheroid growth, percent test/control
assay-method-text: Anticancer human tumor 755483-174-R-J1-PDC patient-derived rhabdomyosarcoma cell line growth inhibition [Asc]
protocol-conditions: second compound 0.316 µM; first compound 0.01 µM; hits give low values
measured-property: viability, T/C (%)
One number for each entry, in %.

* CNC(C)C(=O)NC1CN(S(=O)(=O)c2cccc(S(=O)(=O)N3CCC4CCC(C(=O)NC(c5ccccc5)c5ccccc5)N4C(=O)C(NC(=O)C(C)NC)C3)c2)CCC2CCC(C(=O)NC(c3ccccc3)c3ccccc3)N2C1=O (centres undefined) + Cc1c(S(C)(=O)=O)c(-c2cc(F)cc(N3CCN(c4ccc(NS(=O)(=O)c5ccc(NC(CCN6CCC(C(=O)OCCCP(=O)(O)O)CC6)CSc6ccccc6)c(S(=O)(=O)C(F)(F)F)c5)cc4)CC3)c2)c(-c2ccc(Cl)cc2)n1C(C)C | 24.1
* NC1CCC(NC2CC2c2ccccc2)CC1 (centres undefined) + Cc1c(S(C)(=O)=O)c(-c2cc(F)cc(N3CCN(c4ccc(NS(=O)(=O)c5ccc(NC(CCN6CCC(C(=O)OCCCP(=O)(O)O)CC6)CSc6ccccc6)c(S(=O)(=O)C(F)(F)F)c5)cc4)CC3)c2)c(-c2ccc(Cl)cc2)n1C(C)C | 26.7
* CCN1CCN(Cc2ccc(Nc3ncc(F)c(-c4cc(F)c5nc(C)n(C(C)C)c5c4)n3)nc2)CC1 + CNC(C)C(=O)NC1CN(S(=O)(=O)c2cccc(S(=O)(=O)N3CCC4CCC(C(=O)NC(c5ccccc5)c5ccccc5)N4C(=O)C(NC(=O)C(C)NC)C3)c2)CCC2CCC(C(=O)NC(c3ccccc3)c3ccccc3)N2C1=O | 37.3

Request - read-out viability, T/C | tested on 755483-174-R-J1-PDC complex spheroid growth, percent test/control | compound COc1c(OCCCN2CCOCC2)ccc2c3n(c(=NC(=O)c4cnc(N)nc4)nc12)CCN3 + CNC(C)C(=O)NC1CN(S(=O)(=O)c2cccc(S(=O)(=O)N3CCC4CCC(C(=O)NC(c5ccccc5)c5ccccc5)N4C(=O)C(NC(=O)C(C)NC)C3)c2)CCC2CCC(C(=O)NC(c3ccccc3)c3ccccc3)N2C1=O
29.7

====

Tested on: 755483-174-R-J1-PDC complex spheroid growth, percent test/control
assay-method-text: Anticancer human tumor 755483-174-R-J1-PDC cell line growth inhibition [Asc];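 further: spheroids exposed to compounds for seven days before readout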
protocol-conditions: second compound 3.16 µM; first compound 0.00316 µM; hits give low values
viability, T/C under 30% gets Fulfilled, anything at or over 30% gets Not fulfilled.

See these solved cases before continuing.
• CCN1CCN(Cc2ccc(Nc3ncc(F)c(-c4cc(F)c5nc(C)n(C(C)C)c5c4)n3)nc2)CC1 + Cc1c(S(C)(=O)=O)c(-c2cc(F)cc(N3CCN(c4ccc(NS(=O)(=O)c5ccc(NC(CCN6CCC(C(=O)OCCCP(=O)(O)O)CC6)CSc6ccccc6)c(S(=O)(=O)C(F)(F)F)c5)cc4)CC3)c2)c(-c2ccc(Cl)cc2)n1C(C)C = Not fulfilled
• Cn1ncnc1[C@H]1c2n[nH]c(=O)c3cc(F)cc(c23)N[C@@H]1c1ccc(F)cc1 + Cc1c(S(C)(=O)=O)c(-c2cc(F)cc(N3CCN(c4ccc(NS(=O)(=O)c5ccc(NC(CCN6CCC(C(=O)OCCCP(=O)(O)O)CC6)CSc6ccccc6)c(S(=O)(=O)C(F)(F)F)c5)cc4)CC3)c2)c(-c2ccc(Cl)cc2)n1C(C)C = Fulfilled
• O=C(c1ccc(F)c(F)c1Nc1ccc(I)cc1F)N1CC(O)([C@@H]2CCCCN2)C1 + Cc1c(S(C)(=O)=O)c(-c2cc(F)cc(N3CCN(c4ccc(NS(=O)(=O)c5ccc(NC(CCN6CCC(C(=O)OCCCP(=O)(O)O)CC6)CSc6ccccc6)c(S(=O)(=O)C(F)(F)F)c5)cc4)CC3)c2)c(-c2ccc(Cl)cc2)n1C(C)C = Not fulfilled
• NC1CCC(NC2CC2c2ccccc2)CC1 (stereo unspecified) + Cc1c(S(C)(=O)=O)c(-c2cc(F)cc(N3CCN(c4ccc(NS(=O)(=O)c5ccc(NC(CCN6CCC(C(=O)OCCCP(=O)(O)O)CC6)CSc6ccccc6)c(S(=O)(=O)C(F)(F)F)c5)cc4)CC3)c2)c(-c2ccc(Cl)cc2)n1C(C)C = Fulfilled
• COc1c(OCCCN2CCOCC2)ccc2c3n(c(=NC(=O)c4cnc(N)nc4)nc12)CCN3 + Cc1c(S(C)(=O)=O)c(-c2cc(F)cc(N3CCN(c4ccc(NS(=O)(=O)c5ccc(NC(CCN6CCC(C(=O)OCCCP(=O)(O)O)CC6)CSc6ccccc6)c(S(=O)(=O)C(F)(F)F)c5)cc4)CC3)c2)c(-c2ccc(Cl)cc2)n1C(C)C = Fulfilled

Dear reviewer, please state whether CNC(C)C(=O)NC1CN(S(=O)(=O)c2cccc(S(=O)(=O)N3CCC4CCC(C(=O)NC(c5ccccc5)c5ccccc5)N4C(=O)C(NC(=O)C(C)NC)C3)c2)CCC2CCC(C(=O)NC(c3ccccc3)c3ccccc3)N2C1=O (stereo unspecified) + Cc1c(S(C)(=O)=O)c(-c2cc(F)cc(N3CCN(c4ccc(NS(=O)(=O)c5ccc(NC(CCN6CCC(C(=O)OCCCP(=O)(O)O)CC6)CSc6ccccc6)c(S(=O)(=O)C(F)(F)F)c5)cc4)CC3)c2)c(-c2ccc(Cl)cc2)n1C(C)C has viability, T/C strictly beneath 30%.
Fulfilled
